- Tested on: E57 (patient-derived glioblastoma stem cells of mesenchymal subtype)
- Assay comment: surviving fraction (nuclei count normalised to DMSO); higher = more cells surviving (less toxic)
- Details: 1000 nM; exposure time: 72 h
Structures can show the parent of a compound that is named as a salt.
Kindly supply the reported surviving fraction values for the records listed here.

Ask | Which measured surviving fraction belongs to "Cc1cccn2c(=O)c(-c3nnn[nH]3)cnc12" , tested on E57?
Reply | 1.01

Ask | Which measured surviving fraction belongs to "C#C[C@]1(O)CC[C@H]2[C@@H]3CCc4cc(OC5CCCC5)ccc4[C@H]3CC[C@@]21C" , tested on E57?
Reply | 1.03

Ask | Which measured surviving fraction belongs to "Cc1cc(Nc2cc(CN3CCOCC3)c3nc(C)c(Cc4ccc(Cl)cc4F)n3n2)n[nH]1" , tested on E57?
Reply | 0.42

Ask | Which measured surviving fraction belongs to N=C(N)c1ccc(-c2ccc(-c3ccc(C(=N)N)cc3)o2)cc1 [Furamidine dihydrochloride] , tested on E57?
Reply | 0.956

Ask | Which measured surviving fraction belongs to "CC(C)(C)C1CCN(C(=O)n2ncc(C(O)(c3ccccc3)c3ccccc3)n2)CC1" , tested on E57?
Reply | 0.974

Ask | Which measured surviving fraction belongs to "COc1cccc2c1C(=O)c1c(O)c3c(c(O)c1C2=O)C[C@@](O)(C(=O)CO)C[C@@H]3O[C@H]1C[C@H](N)[C@H](O[C@@H]2CCCCO2)[C@H](C)O1" , tested on E57?
Reply | 0.122

Ask | Which measured surviving fraction belongs to NC1CCN(c2nc3c(cc2F)c(=O)c(C(=O)O)cn3-c2ccc(F)cc2F)C1 (stereo not given) [Tosufloxacin hydrochloride] , tested on E57?
Reply | 1.09

Ask | Which measured surviving fraction belongs to "COc1cc([C@@H]2c3cc4c(cc3[C@H](O)[C@H]3COC(=O)[C@H]23)OCO4)cc(OC)c1OC" , tested on E57?
Reply | 0.0755

Ask | Which measured surviving fraction belongs to "CN(C(=O)CN(CCO)CC(=O)N(C)C(C)(C)Cc1ccccc1)C(C)(C)Cc1ccccc1" , tested on E57?
Reply | 0.948

Ask | Which measured surviving fraction belongs to CN[C@@H]1[C@@H](O)[C@@H](O[C@@H]2[C@@H](O)[C@H](O[C@H]3OC(CN)=CC[C@H]3N)[C@@H](N)C[C@H]2N)OC[C@]1(C)O [Sisomicin sulfate] , tested on E57?
Reply | 0.919

Ask | Which measured surviving fraction belongs to "CCN1CCN(C(=O)Cc2ccc(Nc3ncc(F)c(Nc4ccc(C(=O)Nc5ccccc5Cl)cc4)n3)cc2)CC1" , tested on E57?
Reply | 0.513

Ask | Which measured surviving fraction belongs to "N=C(NCCCCCCNC(=N)NC(=N)Nc1ccc(Cl)cc1)NC(=N)Nc1ccc(Cl)cc1" , tested on E57?
Reply | 0.838

Ask | Which measured surviving fraction belongs to "OC[C@H]1O[C@@H](Oc2ccc(O)cc2)[C@H](O)[C@@H](O)[C@@H]1O" , tested on E57?
Reply | 1

Ask | Which measured surviving fraction belongs to "O=C(C1CC1)N1CC[C@@H](Cc2n[nH]c(=O)n2-c2ccc(-c3ccc4occc4c3)cc2)C1" , tested on E57?
Reply | 0.53

Ask | Which measured surviving fraction belongs to "Cc1cc(CN2CCN(c3c(Br)cnc4nc(-c5ccc(N6CCN(C)CC6)cc5)[nH]c34)CC2)no1" , tested on E57?;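 also: nuclei counted by high-content imaging of Hoechst-stained cells in laminin-coated 384-well plates, relative to 0.1% DMSO vehicle wells, with staurosporine as cell-death control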
Reply | 0.325

Data credit: the supplement of paper PMC13207355
